experiment: yeast display, Sf9 membrane polyspecificity reagent, FACS + sequencing; frameworks hold sequencing errors
property label: polyreactivity (PSR sort gate)

>>> recorded_result("QVQLVESGGGLVQAGGSLRLSCAASGFTFQRYTMGWYRQAPGKERELVAAITRSGGRTYYADSVKGRFTISRDNAKNTVYLQMNSLKPEDTAVYYCAVDYRTRGDYWGQGTQVTVSS")
"high polyreactivity"
>>> recorded_result("QVQLVESGGGLVQAGGSLRLSCAASGRIFDTYVMGWYRQAPGKERELVAAISGSGGSTYYADSVKGRFTISRDIAKNTVYLQMNSLKPEDTAVYYCAAARRYYAYRYDYWGQGTQVSVSS")
"high polyreactivity"
>>> recorded_result("QDQLVESGGVLVQAGGSLRLSCAASGSIFFRNAMGWYRQAPGKERELVAGIRWSGGSTYYADSVKARFTISRDNAKNTVYLQMNSLKPEDSAVYYCAASRYRPARVQYSYDYWGQGTQVTVSS")
"high polyreactivity"
